Where do the numbers come from? From the supplement of paper PMC11061612.

test system: G-292-Clone-A141B1 (Osteosarcoma); assay: combination Emax (second highest fraction inhibited in the dose matrix, 72 h); higher = more inhibition; extreme values may be limits of the assay
combination Emax for assorted compounds

| compound | combination Emax |
| --- | --- |
| C=CCn1c(=O)c2cnc(Nc3ccc(N4CCN(C)CC4)cc3)nc2n1-c1cccc(C(C)(C)O)n1 [AZD1775] + O=C(c1cc(Cc2n[nH]c(=O)c3ccccc23)ccc1F)N1CCN(C(=O)C2CC2)CC1 [Olaparib] (first compound max 1 µM, partner max 10 µM) | 0.294 |
| Cc1c2c(nn1C)CSCc1cc(n(C)n1)CSc1cc(c3ccccc3c1)OCCCc1c(C(=O)O)n(C)c3c-2c(Cl)ccc13 [AZD5991] + CS(=O)(=O)CCNCc1ccc(-c2ccc3ncnc(Nc4ccc(OCc5cccc(F)c5)c(Cl)c4)c3c2)o1 [Lapatinib] (first compound max 1 µM, 7x7, partner max 10 µM) | 0.264 |
| COc1cccc(OCCCN)c1-c1cc(Nc2cnc(C#N)cn2)n[nH]1 [Prexasertib] + CN(C)CCCOc1ccc(-c2ccc3ncc4c(c3c2)n(C2CCOCC2)c(=O)n4C)cn1 [AZD0156] (first compound max 1 µM, 7x7, partner max 1 µM) | 0.33 |
| COc1cccc(OCCCN)c1-c1cc(Nc2cnc(C#N)cn2)n[nH]1 [Prexasertib] + CCc1c2c(nc3ccc(O)cc13)-c1cc3c(c(=O)n1C2)COC(=O)[C@]3(O)CC [SN-38] (first compound max 1 µM, 7x7, partner max 0.3 µM) | 0.34 |
| C[C@@H]1COCCN1c1cc(C2([S@](C)(=N)=O)CC2)nc(-c2ccnc3[nH]ccc23)n1 [AZD6738] + Nc1ccn([C@@H]2O[C@H](CO)[C@@H](O)C2(F)F)c(=O)n1 [Gemcitabine] (first compound max 10 µM, 7x7, partner max 0.3 µM) | 0.413 |
| Cc1c2c(nn1C)CSCc1cc(n(C)n1)CSc1cc(c3ccccc3c1)OCCCc1c(C(=O)O)n(C)c3c-2c(Cl)ccc13 [AZD5991] + C[C@@H](Nc1cc(F)cc(F)c1)c1cc(C(=O)N(C)C)cc2c(=O)cc(N3CCOCC3)oc12 [AZD8186] (first compound max 1 µM, 7x7, partner max 3 µM) | 0.415 |
| COc1nnc2ccc(N3CCC(c4ccc(OCCN5CCN(C)C(=O)[C@H]5C)cc4)CC3)nn12 [AZD5153] + CCN(CCO)CCCOc1ccc2c(Nc3cc(CC(=O)Nc4cccc(F)c4)[nH]n3)ncnc2c1 [AZD2811] (first compound max 1 µM, 7x7, partner max 1 µM) | 0.366 |
